System: DLD1
experiment: cell viability (CellTiter-Glo) relative to plate median (fraction of plate median); higher = more viable cells
condition set: 5 µM; treatment time 24 h; reporter: 7TFP
The label is fulfilled for cell viability below 1 and not fulfilled for cell viability equal to or exceeding 1.

Solved entries:
compound="COCCOC(=O)C1=C(C)NC(C)=C(C(=O)OC(C)C)C1c1cccc([N+](=O)[O-])c1 (stereo not given)" class_label=fulfilled
compound=CCN(CC)C(=O)c1cccc(C)c1 class_label=fulfilled

Request: # check: cell viability < 1 for Cc1ccc2c(c1)CC[C@H]1CC(=O)CC[C@]21C
Response: not fulfilled

* * *

System: SW480
experiment: TCF/Wnt firefly luciferase reporter signal relative to plate median (fraction of plate median); higher = higher Wnt reporter signal
condition set: 5 µM; treatment time 24 h; reporter: 7TFP
endpoint name: TCF/Wnt firefly luciferase reporter signal
Answers are plain numbers.

// below: answered molecules
mol_smiles=C[C@@H]1O[C@@H](O[C@H]2[C@H](Oc3cc(O)c4c(c3)O[C@H](c3ccc(O)cc3)CC4=O)O[C@H](CO)[C@@H](O)[C@@H]2O)[C@H](O)[C@H](O)[C@H]1O readout_number=1.01
mol_smiles=Cc1c(Cl)cccc1Nc1ccccc1C(=O)O readout_number=0.862
mol_smiles=COc1ccc(-c2cc(=O)c3c(OC)c(OC)c(OC)c(OC)c3o2)cc1OC readout_number=0.992
mol_smiles=CC(C)[C@H](NC(=O)[C@H](Cc1ccc(O)cc1)NC(=O)[C@@H](NC(=O)C(F)(F)F)C(C)C)C(=O)O readout_number=0.845
mol_smiles=COc1cc(OC)c2c(c1Cl)O[C@@]1(C(=O)CC(=O)C[C@H]1C)C2=O readout_number=1.02

Record TCF/Wnt firefly luciferase reporter signal for all entries; do not skip any.
1. CCCCNC(=O)NS(=O)(=O)c1ccc(C)cc1
2. C[C@H](CCC(=O)O)[C@H]1CC[C@H]2[C@@H]3[C@H](O)C[C@@H]4C[C@H](O)CC[C@]4(C)[C@H]3C[C@H](O)[C@]12C
3. CC(=O)[C@H]1CC[C@H]2[C@@H]3CC=C4C[C@@H](OC(=O)CCC(=O)O)CC[C@]4(C)[C@H]3CC[C@]12C

Response:
1
1.07
1.1
